# Tested on: Trypanosoma cruzi
# TEST METHOD NOTES: Percent of growth inhibition of Trypanosoma cruzi (Y strain) epimastigote forms at compound concentration of 10 mg/mL after incubation for 72 hr
# Format: functional
# Set-up: dose or concentration left out as unconfirmed
Give measured inhibition for each item. Keep answers brief.
Answers are plain numbers, in %.

Provide inhibition values for the following items, in order.
1. O=C(/C=C/c1ccc([N+](=O)[O-])o1)NCc1ccccc1
2. O=C(/C=C/c1ccc([N+](=O)[O-])o1)NCc1ccc2c(c1)OCO2
3. O=C(/C=C/c1ccc([N+](=O)[O-])o1)Nc1nc2c(Cl)cccc2s1
4. O=C(/C=C/c1ccco1)NCc1ccccc1
5. O=C(/C=C/c1ccc([N+](=O)[O-])s1)NCc1ccccc1
6. C[S+](C)[O-] [DIMETHYL SULFOXIDE]
7. O=C(/C=C/c1ccc([N+](=O)[O-])o1)NCc1ccc(Cl)cc1
8. O=C(/C=C/c1cccs1)NCc1ccccc1

1: 100; 2: 100; 3: 50; 4: 28.6; 5: 53.6; 6: 0; 7: 100; 8: 19.6

Please give the measured inhibition for this compound: `CC(C)CNC(=O)/C=C/c1ccc([N+](=O)[O-])o1`
100

====

# Test system: Trypanosoma cruzi
# TEST METHOD NOTES: Percent of growth inhibition of Trypanosoma cruzi (Y strain) epimastigote forms at compound concentration of 1 mg/mL after incubation for 48 hr
# Format: functional
# Design: dose or concentration left out as unconfirmed
Would you please tag the item t when its inhibition is 60% or above, and f when it is below?

Record excerpt, results attached:
>>> answer_label("C[S+](C)[O-] [DIMETHYL SULFOXIDE]")
"f"
>>> answer_label("O=C(/C=C/c1ccc([N+](=O)[O-])o1)NCc1ccccc1")
"t"
>>> answer_label("O=C(/C=C/c1ccc([N+](=O)[O-])o1)NCc1ccc2c(c1)OCO2")
"t"
>>> answer_label("CC(C)CNC(=O)/C=C/c1ccc([N+](=O)[O-])o1")
"t"
>>> answer_label("O=C(/C=C/c1ccco1)NCc1ccccc1")
"f"

Check if inhibition >= 60% (inclusive). Item: `O=C(/C=C/c1cccs1)NCc1ccccc1`
f

Check if inhibition >= 60% (inclusive). Item: `O=C(/C=C/c1ccc([N+](=O)[O-])o1)Nc1nc2c(Cl)cccc2s1`
f

====

Give measured inhibition for each item. Keep answers brief.
# Test system: Trypanosoma cruzi
# TEST METHOD NOTES: Percent of growth inhibition of Trypanosoma cruzi (Y strain) epimastigote forms at compound concentration of 1 mg/mL after incubation for 72 hr
# Format: functional
# Set-up: dose or concentration left out as unconfirmed
One number for each entry, in %.

Solved entries:
>>> test_result("C[S+](C)[O-] [DIMETHYL SULFOXIDE]")
0
>>> test_result("O=C(/C=C/c1cccs1)NCc1ccccc1")
10.7
>>> test_result("CC(C)CNC(=O)/C=C/c1ccc([N+](=O)[O-])o1")
69.6
>>> test_result("O=C(/C=C/c1ccc([N+](=O)[O-])o1)NCc1ccccc1")
71.4
>>> test_result("O=C(/C=C/c1ccc([N+](=O)[O-])s1)NCc1ccccc1")
25
>>> test_result("O=C(/C=C/c1ccc([N+](=O)[O-])o1)NCc1ccc2c(c1)OCO2")
71.4
>>> test_result("O=C(/C=C/c1ccc([N+](=O)[O-])o1)Nc1nc2c(Cl)cccc2s1")
23.2
>>> test_result("O=C(/C=C/c1ccco1)NCc1ccccc1")
5.36

Please give the measured inhibition for this compound: `O=C(/C=C/c1ccc([N+](=O)[O-])o1)NCc1ccc(Cl)cc1`
67.8
